Below: a set of entries, each annotated with reported abundance fitness.
B1: Double-stranded RNA-binding protein Staufen homolog 1, residues 183 to 249; numbered along this chain, O95793 (parent)
chain: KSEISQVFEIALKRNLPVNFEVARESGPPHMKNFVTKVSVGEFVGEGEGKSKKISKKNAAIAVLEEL

Variants of: B1
Assay: abundance fitness (aPCA) (normalised: wild type 0, dead -1); higher = more abundant; growth selection in yeast, the domain comes from the species named
Conditions: Homo sapiens
Please respond with just the number, no unit label.

| Sequence Variant | abundance fitness |
| --- | --- |
| E42M | -0.1 |

Q. Which abundance fitness reading was recorded for the variant `L64R` ?
A. -0.517

Q. Which abundance fitness reading was recorded for the variant `F20A` ?
A. -0.499

// provenance: the Human Domainome abundance scans (Beltran et al. 2025)
